- Tested on: K4 kissing-loop RNA reporter
- ASSAY OVERVIEW: apparent KD of K4 kissing-loop reporter; higher = weaker reporter binding
- APPLIED CONDITIONS: Eterna round: R107; input ligand: FMN 200 uM
PARAMETER: apparent KD of K4 kissing-loop reporter (nM)
Report the figure in nM without appending any unit label.

(Q) Reported apparent KD of K4 kissing-loop reporter for GCAGUGAUGUUGCACGAGUAGGGUAGAGUGCGAGGACCGGUACGGCCGCCACUCGUAUGGAACUCGCUAAUUUAUGGAAUGGUGA [whbob_SS_tryp_A] : what is it?
(A) 791

(Q) Reported apparent KD of K4 kissing-loop reporter for UGGACCUGACUCGAUAAGAGUCAAAGGGAUACCAGCCACGAAAGUGGCCCUUGGCAGCUCUGCCAGUGAUGUUGGUCAAGGUCCU [#SwitchBubble 6 #StaticStem] : what is it?
(A) 925

(Q) Reported apparent KD of K4 kissing-loop reporter for AUUUAGACGAGUGAUGUUCGUGUUAAUACAGAGGAUAUGCGUGAUUGCAGAAGGCUGUAUUUAUAUAUGUUAUGUGGUUUUAAAA [whbob_Ex_FMNA__2th187] : what is it?
(A) 76.6

(Q) Reported apparent KD of K4 kissing-loop reporter for UGACUGGACUGAAGGAGCGCUAAACUCCUAGUGAUGUUAGGAAAACGAGACAAAGUCUCGAAGCAGGUAGGUCGCAGUCUAGUCU : what is it?
(A) 172

(Q) Reported apparent KD of K4 kissing-loop reporter for UAAUUUAUCGCAGGAUAUAGCCAUAAACCGGUCCUAAGGGACCUUCUGGGCAGUGAUGUUGCCCGGCUAGAAGGGCGAGUUCACC [Anenlagema] : what is it?
(A) 115

(Q) Reported apparent KD of K4 kissing-loop reporter for AAAUUCUUUUUUUUAUUUAACUUUUCAGAAGGAGCGUGGUAGUACACAGGUAGGUCGCUGAAUUUUGGGCUAGUGAUGUUAGUUA [whbob_SS_Arginine_A_sa113] : what is it?
(A) 221

(Q) Reported apparent KD of K4 kissing-loop reporter for UCUGGAGGAUAUGAUACCAGCAGUGAGAGAGAGGAAGUAUAGUGAUGUUAUAUGAGAGAAUGCCCUUGGCAGCGUGUGUAGUGGG [SSTheophylB.L] : what is it?
(A) 175

(Q) Reported apparent KD of K4 kissing-loop reporter for AUGUAUGAAUUAGGAUAUCGUGAGCCUUGCAUAUAUAUGAUAAAUGGAUAUGUCGUAGUGAUGUUACGAGAAGGAGUGUGGAGUA [KL-XFMN-B4] : what is it?
(A) 45

(Q) Reported apparent KD of K4 kissing-loop reporter for UGAUAGGACAGAAGGAGCGGAGGUCGUCAAAGACGACCAAUAACGUUGAUAGGAGUGAUGUUCCAGGUAGGUCGCUGUCCUAUCU [ArgBX 29 #SwitchBubble #StaticStem] : what is it?
(A) 147

---

- Test system: K4 kissing-loop RNA reporter;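 further: bound reporter read as fluorescence of individual clusters on recovered sequencing chips by microscopy, with normalized cluster intensities fitted with a binding model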
- ASSAY OVERVIEW: apparent KD of K4 kissing-loop reporter; higher = weaker reporter binding
- APPLIED CONDITIONS: Eterna round: R107; input ligand: none
Could you please report measured apparent KD of K4 kissing-loop reporter for the items listed next?
Report the figure in nM without appending any unit label.

(Q) Reported apparent KD of K4 kissing-loop reporter for UUUCCAGAUAAGUGGGAACACUCCAUAACAGAGGAUAUCAGAGCGCUGAGAAGGCUGUUUUACAGUGAUGUUGUAAGUGUGGAGU [FMN A SS t2] : what is it?
(A) 283

(Q) Reported apparent KD of K4 kissing-loop reporter for GCGCGCGUUUUAGAUACCAGCCAGUGAUGUUGGCGAGGAUUCUGGAGCGUAGUGUCAAAUGGCCCUUGGCAGCUAACACGCGGCU [Zabea] : what is it?
(A) 119

(Q) Reported apparent KD of K4 kissing-loop reporter for UGGAGUUGACGAAGAGUCAACUCCUGAGAUACCAGUGACGAAAGUCACCCUUGGCAGCUCUCUGCCAGUGAUGUUGGUUUAUAAG [#07 K4 Theophylline A Same State] : what is it?
(A) 144

(Q) Reported apparent KD of K4 kissing-loop reporter for AUGCGCGCGGCGGCCGCCACUCGCAUGAGAGUGAUGUUCUCACCGUGACCGUAAGGUCGCGGUGUGAGGACCGGGCCGGGCUGCG [#2 Same State - Tryptophan B Attempt #23 (HarryS)] : what is it?
(A) 245

(Q) Reported apparent KD of K4 kissing-loop reporter for AGAAACUUGUAUGUCGAGUGUGCGCGCGAUACCAGCCAAAUGGAUGGCCCUUGGCAGCGCUGCGAGUGAUGUUCGCCCGCUUGAC [#18 K4 Theophylline A Exclusion] : what is it?
(A) 203

(Q) Reported apparent KD of K4 kissing-loop reporter for GCCGUAGAUGGAAGGAGCGUGUCAAAGUGAUGUUUUGAUUAACUCCCUUAGGGAAAGAUGGCACAGGUAGGUCGCCAUCUACGGC : what is it?
(A) 102

(Q) Reported apparent KD of K4 kissing-loop reporter for GGUCGCCUGAGCAGUGAUGUUGCAAGGGAAGGAGCGCGUUUUUUCGCAGGUAGGUCGCCCAAAUAAUAAGUUAAACUAGGCGACC [4.)] : what is it?
(A) 149

(Q) Reported apparent KD of K4 kissing-loop reporter for AGACUACCACACUGUCAAUAGACAGUGUACUAGGAUAUGCUGAUAAGCAGAAGGAGUGAUGUUCCGAGGUAGUCAAUAAAAUAAU [FmnAX 13 U28+G66] : what is it?
(A) 253

(Q) Reported apparent KD of K4 kissing-loop reporter for GGUAGCAUGGCGGCCGCCACUUAAUCACUCCAGGAUGAGGAAUAUAAGCAGUGAUGUUGCUAAGUAAGGACCGGGCCAUGCUACC : what is it?
(A) 327

(Q) Reported apparent KD of K4 kissing-loop reporter for UGUCAUUGGUCGGCCGCCACUUCAUAGAGAGUGAUGUUCUUUAAGACGGAUCGAAAGAUCUGUCGAAGGACCGGGACCGAUGACU [FiskerMod 10 - Jieux - Same State - Tryptophan B] : what is it?
(A) 1390

(Q) Reported apparent KD of K4 kissing-loop reporter for GCCGUACGCAUGGAUACCAGCUUGUCCGAGUGAUGUUCGGGUCUGAAUGCCGGUAAUAAGAGCCCUUGGCAGCCAUGCGUACGGC : what is it?
(A) 124

(Q) Reported apparent KD of K4 kissing-loop reporter for GCGCGGGAGUGAUGUUCCAAGUGGUGUUAACGAGGACCGGUACGGCCGCCACUCGUUACGGCCGGGCCGUAGGAUACACUGGCGC [Same State - Tryptophan A (Freestyle 16)] : what is it?
(A) 274

(Q) Reported apparent KD of K4 kissing-loop reporter for UUGUUUGGUUGAGAGGUUGGGCGAGAUGAUACCAGUAUAGAAGAGUACCCUUGGCAGCAUAGGAGAGAUAUAGUGAUGUUGUAUG [SSTheophA.T] : what is it?
(A) 480

(Q) Reported apparent KD of K4 kissing-loop reporter for UUUUAUUAAUUCUUCUAGUGAUGUUAGAUACGAGGACCGGUACGGCCGCCACUCGCUUAUUGGUUUAUAUAUUUUAUAUUCUUUA [JR_SSTryptoA_Sub015] : what is it?
(A) 330

(Q) Reported apparent KD of K4 kissing-loop reporter for GGGAGUAGUGCGGCCGCCACUGAGAAAGAAGAAGAAUAUAGUGAUGUUAUAUAGGAAGGGAAGAAUAGGACCGGGCAUUAGAUUU [SSTRyptB.Z] : what is it?
(A) 340

(Q) Reported apparent KD of K4 kissing-loop reporter for UCGAGUUGACGAAGAGUCAACUCGUGUGAUACCAGUGACGAAAGUCACCCUUGGCAGCACUAUGCUAGUGAUGUUGGUAUUUAAG [#08 K4 Theophylline A Same State] : what is it?
(A) 179

(Q) Reported apparent KD of K4 kissing-loop reporter for CGAGUGAUGUUCGAAGAGUUGUUAAGCGAUACCAGCUAGGAAACUGGCCCUUGGCAGCGUAAUAAGUAAAUAAAUAAAUGAUCAC [whbob_Ex_Theo_A_th63] : what is it?
(A) 442

Attribution: the supplement of paper PMC9170038
